B1: TPR 5TU (parent)
chain: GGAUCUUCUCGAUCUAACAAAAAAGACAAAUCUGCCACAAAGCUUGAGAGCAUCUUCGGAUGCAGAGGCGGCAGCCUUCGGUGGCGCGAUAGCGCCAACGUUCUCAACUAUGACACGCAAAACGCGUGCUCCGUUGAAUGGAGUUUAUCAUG

variants of: B1; assay: polymerase ribozyme fitness, log enrichment relative to wild type (log ratio); higher = more active; in vitro selection for triplet polymerase activity
This sample holds only a part of the variants without activity.
Readout: polymerase ribozyme fitness (log ratio)

Here are 2 variants together with their reported answers.
>>> df
                      mutation  observed_value
0  G34C G74A U109A C123U C149U          ≤ -4.2
1              U53G G74A C114G          ≤ -4.2

The variant listed as A26U A40G A41C A49G C51U A52C U90A G92A C95U A97C C118A A137G U151C has a reported polymerase ribozyme fitness (log ratio) of ≤ -4.2

The variant listed as A52G C72U G81A G86A C103G A122C has a reported polymerase ribozyme fitness (log ratio) of ≤ -4.2

The variant listed as A73U G83U A122C U127A has a reported polymerase ribozyme fitness (log ratio) of ≤ -4.2

The variant listed as U6A A39U U101G C118G has a reported polymerase ribozyme fitness (log ratio) of ≤ -4.2

The variant listed as C51U C72U G80A C85A U109G has a reported polymerase ribozyme fitness (log ratio) of ≤ -4.2

The variant listed as U33C A122G U127G has a reported polymerase ribozyme fitness (log ratio) of ≤ -4.2

The variant listed as C14G A21G G34A A37C G50C C57G A60C A64G has a reported polymerase ribozyme fitness (log ratio) of ≤ -4.2

The variant listed as A26G U31A G48A A60C C76G A107C A119U has a reported polymerase ribozyme fitness (log ratio) of ≤ -4.2

The variant listed as A16G A23U A29G A47C G50A C87G A106U U135C A147U has a reported polymerase ribozyme fitness (log ratio) of ≤ -4.2

The variant listed as G25U U55G A73G A120C C123U has a reported polymerase ribozyme fitness (log ratio) of -3.39

The variant listed as G81A C105G A121U has a reported polymerase ribozyme fitness (log ratio) of -1.1

The variant listed as C5G U77A G94U G140C G152A has a reported polymerase ribozyme fitness (log ratio) of ≤ -4.2

The variant listed as A24U C27U C36U G58C G83A G112U A121G G124C has a reported polymerase ribozyme fitness (log ratio) of ≤ -4.2

The variant listed as A26U U31A G86U A147C has a reported polymerase ribozyme fitness (log ratio) of ≤ -4.2

The variant listed as C27U U55A C99G A138G has a reported polymerase ribozyme fitness (log ratio) of ≤ -4.2
